- procedure-summary: OD615 S. cerevisiae growth inhibition, permissive medium, pilot counter-assay, permissive growth control for S. cerevisiae lifespan shortening project (AID 705)
- condition-set: OD615, 24 h, at 10 µM
The source made the active and inactive calls.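 Rule for the calls: active = growth inhibition above 25% in both replicates, a cutoff set 3 SD above the mean; inconclusive = above 25% in only one replicate; inactive = the rest.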
Mark one answer only. Choices: 1 for active, 0 for inactive

GET /call?item= Cc1cc(C)n(S(=O)(=O)c2cccc(Cl)c2Cl)n1 returns the recorded outcome of this test.
0

###

- procedure-summary: growth suppression of beta-catenin knockout HCT116, pilot screen, human colon tumor cells (AID 823);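 note: 0% = wells killed by 20 µM Hyamine and 100% = untreated DMSO cell wells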
- condition-set: CellTiter-Glo, 60 h, at 10 µM, stronger effect = lower value
Results filed as inconclusive are left out. Calls of active or inactive are those of the source.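 How the source made its calls: active means cell viability at or below a set limit in both duplicate runs, the limit being the all-compound median minus 4 SD (cut at about 23% in these data, passing the limit was not always enough); inconclusive means no clear call, values can overlap the other calls; inactive means the rest.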
Consider the following molecules and their measured viability readings.

Worked cases, viability given:
{"columns": ["molecule", "measured-value"],
 "data": [
  ["Cc1nc2ccccc2c2oc(C(=O)N3CCc4ccccc43)cc12", "95.5% (inactive)"],
  ["CCN1CCN(CC(=O)Nc2ccc3c(c2)OCCO3)C(=O)C1=O", "105% (inactive)"],
  ["COc1cc(C(=O)N2CCN(C(=O)C(Cc3cc(C)ccc3C)NC(C)=O)CC2)cc(OC)c1OC (configuration not stated)", "97.7% (inactive)"]
]}

Next item in the queue.
Which value of viability has been reported for COC(=O)c1cnn2c(C)c(Cc3cccc(F)c3)c(C)nc12 in the records?
92.3% (inactive)

###

Measured inhibition values are reported for all entries that follow.
- procedure-summary: 384-well plate pilot, post-Golgi transport modulator project, inhibition of yeast transport mutant growth (AID 636)
- condition-set: absorbance 615 nm, about 18 h, stronger effect = higher value
Provide only the numeric value, understood in %.

{"columns": ["molecule", "recorded-metric", "measurement-unit", "measured-value"],
 "data": [
  ["Cc1cc(C)n(-c2nnc(C)n2/N=C/c2ccccc2F)n1", "inhibition", "%", -7.07],
  ["CCOc1ccc(C(=O)N2CCN(C(=O)c3ccco3)CC2)cc1OCC", "inhibition", "%", -3.47],
  ["CCOC(=O)c1cc(C)sc1N1C(=O)C2C3C=CC(C3)C2C1=O (stereo not drawn)", "inhibition", "%", -7.67],
  ["CCCCC(=O)NCCc1cc2ccc(OC)cc2[nH]c1=O", "inhibition", "%", -7.95]
]}

Reported inhibition for CCOC(=O)CSc1nnc(-c2ccc(S(=O)(=O)N3CCOCC3)cc2)n1-c1ccccc1 : what is it?
-1.97

Now the molecule CCCOc1ccc(/C(O)=C2/C(=O)C(=O)N(CCCOC)C2c2ccncc2)cc1 (stereo not drawn)
-9.46

Follow-up item: CCn1c(C(=O)N2CCC(C(=O)NCc3ccc4c(c3)OCO4)CC2)cc2sccc21
-2.93

Another molecule to check: CCC(C)(C)n1nnnc1C(c1cc2cc(OC)ccc2[nH]c1=O)N1CCc2ccccc21 (stereo not drawn)
-3.6

###

- procedure-summary: reversal of MRP1-mediated doxorubicin resistance, pilot screen, H69AR cells, doxorubicin co-treatment (AID 601)
- condition-set: H69AR cells + 2 uM doxorubicin, CellTiter-Glo, 72 h; at 10 µM; stronger effect = higher value
recorded-metric: differential viability (reversal) (%)
Answer in %, number only, no unit symbol.

Please review the following examples before continuing.
{"columns": ["molecule", "measured-value"],
 "data": [
  ["Cc1cc(C)cc(NC(=O)C2CCCN(S(=O)(=O)c3cnc[nH]3)C2)c1 (centres undefined)", -1.48],
  ["CCSC1(SCC)N=C(N)C2(C#N)C(c3ccccc3)NC(C)=C(C)C12C#N (centres undefined)", 19.2],
  ["Cc1ccc(CN2C(=O)CCC2C(=O)NCC2CCCO2)cc1 (centres undefined)", 5.64],
  ["COc1ccc(C2CC(=O)C3=C(C2)Nc2ccccc2N(C(=O)C2CC2)C3c2cccnc2)cc1OC (centres undefined)", 1.81],
  ["COc1ccc(-c2cc(C(=O)Nc3ccc(C)cc3)no2)cc1", 9.35]
]}

Let us examine a further case.
GET /values?readout=differential viability (reversal)&item= O=C(NCC1CCCCN1)c1cc(OCC(F)(F)F)ccc1OCC(F)(F)F (centres undefined)
-4.55

From: PubChem BioAssay
